target: GDP-bound KRAS wild-type protein (Homo sapiens)
test_description: Binding to KRAS by surface plasmon resonance (SPR), Single Cycle Kinetics
condition_details: SPR, Single Cycle Kinetics, GDP-bound KRAS wild-type protein; read-out: KRAS KD
value_type: pKd
Hey, just a heads up that pKd is the negative log base 10 of the concentration in molar.

molecule="CC[C@H](C)[C@@H]1NC(=O)[C@H](CC(C)C)N(C)C(=O)C[C@@H](C(=O)N2CCOCC2)N(CC)C(=O)[C@H](C2CCCC2)N(C)C(=O)C2(CCCC2)NC(=O)[C@@H]2CCCN2C(=O)[C@H](CCc2ccc(C(F)(F)F)c(Cl)c2)NC(=O)CN(C)C(=O)[C@H](Cc2ccc(F)cc2)N2CCCCC[C@@H](C2=O)N(C)C(=O)CN(C)C1=O [PP0970]" value_type=pKd numeric_result=8.66
molecule="CCO[C@@H]1C[C@H]2C(=O)NC3(CC(C)(C)C3)C(=O)N(C)[C@@H](C(CC)CC)C(=O)N(C)[C@H](C(=O)N3CCCC3)CC(=O)N(C)[C@@H](COC)C(=O)N[C@@H]([C@@H](C)CC)C(=O)N(C)CC(=O)N(C)[C@H]3C/C=C\\CCN(C3=O)[C@@H](Cc3ccc(C)cc3)C(=O)N(C)CC(=O)N[C@@H](CCc3ccc(C(F)(F)F)c(OC)c3)C(=O)N2C1 [PP2167]" value_type=pKd numeric_result=9.15

query: Suppose we examine the molecule CCO[C@@H]1C[C@H]2C(=O)NC3(CC(C)(C)C3)C(=O)N(C)[C@@H](C3CCCC3)C(=O)N(C)[C@H](C(=O)N(C)CC)CC(=O)N(C)[C@@H](CC(C)C)C(=O)N[C@@H]([C@@H](C)CC)C(=O)N(C)CC(=O)N(C)[C@H]3C/C=C\CCN(C3=O)[C@@H](Cc3ccc(C(F)F)cc3)C(=O)N(C)CC(=O)N[C@@H](CCc3cc(F)c(C(F)(F)F)c(F)c3)C(=O)N2C1 [PP2046] ; what pKd value has been reported?
result: 10.20

====

target: GDP-bound KRAS wild-type protein (Homo sapiens, UniProt P01116)
Sequence (P01116 whole entry): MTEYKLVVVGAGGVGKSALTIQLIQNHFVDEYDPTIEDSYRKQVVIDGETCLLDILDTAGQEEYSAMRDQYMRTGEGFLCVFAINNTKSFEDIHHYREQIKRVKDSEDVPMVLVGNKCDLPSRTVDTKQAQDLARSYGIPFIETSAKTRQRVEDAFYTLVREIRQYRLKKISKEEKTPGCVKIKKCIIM
test_description: Binding to KRAS by surface plasmon resonance (SPR), Single Cycle Kinetics
condition_details: SPR, Single Cycle Kinetics, GDP-bound KRAS wild-type protein; read-out: KRAS KD
value_type: pKd
As a rule, pKd stands for the negative log10 of the concentration, concentration in M.

Use these answered entries as a reference point.
substance_smiles=CCCN(C)C(=O)[C@@H]1CC(=O)N(C)[C@@H](CC)C(=O)N[C@@H]([C@@H](C)CC)C(=O)N(C)CC(=O)N(C)[C@H]2C/C=C\CCN(C2=O)[C@@H](Cc2ccc(C(F)(F)F)cc2)C(=O)N(C)CC(=O)N[C@@H](CCc2cc(F)c(C(F)(F)F)c(F)c2)C(=O)N2C[C@H](OCC)C[C@H]2C(=O)NC2(CC(F)(F)C2)C(=O)N(C)[C@@H](C2CCCC2)C(=O)N1C numeric_result=10.00
substance_smiles=CCO[C@@H]1C[C@H]2C(=O)NC3(CC(C)(C)C3)C(=O)N(C)[C@@H](C3CCCC3)C(=O)N(C)[C@H](C(=O)N(C)CC)CC(=O)N(C)[C@H]3CCCCCCc4ccc(cc4)C[C@@H](C(=O)N(C)CC(=O)N[C@@H](CCc4ccc(C(F)(F)F)c(OC)c4)C(=O)N2C1)N1CC/C=C\C[C@@H](C1=O)N(C)C(=O)CN(C)C(=O)[C@H]([C@@H](C)CC)NC3=O numeric_result=9.92
substance_smiles=CCOC[C@H]1C(=O)N[C@@H]([C@@H](C)CC)C(=O)N2CCC[C@H]2C(=O)N(C)[C@H]2C/C=C\CCN(C2=O)[C@@H](Cc2ccc(C(F)(F)F)cc2)C(=O)N(C)CC(=O)N[C@@H](CCc2ccc(C(F)(F)F)c(OC)c2)C(=O)N2C[C@@H](C)C[C@H]2C(=O)N(C)C2(CCC2)C(=O)N(C)[C@@H](C2CCCC2)C(=O)N(C)[C@H](C(=O)N(C)C)CC(=O)N1C numeric_result=10.21
substance_smiles=C=CC[C@H]1C(=O)N[C@@H]([C@@H](C)CC)C(=O)N(C)CC(=O)N(C)[C@H]2CCCCCN(C2=O)[C@@H](Cc2ccc(C(F)(F)F)cc2)C(=O)N(C)CC(=O)N[C@@H](CCc2cc(F)c(C(F)(F)F)c(F)c2)C(=O)N2C[C@H](OCC)C[C@H]2C(=O)N[C@](C)(CC=C)C(=O)N(C)[C@@H](C2CCCC2)C(=O)N(C)[C@H](C(=O)N2CCOCC2)CC(=O)N1C numeric_result=8.49
substance_smiles=CCO[C@@H]1C[C@H]2C(=O)NC3(CC(C)(C)C3)C(=O)N(C)[C@@H](C(CC)CC)C(=O)N(C)[C@H](C(=O)N3CCCC3)CC(=O)N(C)[C@@H](CC)C(=O)N[C@@H]([C@@H](C)CC)C(=O)N(C)CC(=O)N(C)[C@H]3C/C=C\CCN(C3=O)[C@@H](Cc3ccc(C)cc3)C(=O)N(C)CC(=O)N[C@@H](CCc3cc(F)c(C(F)(F)F)c(F)c3)C(=O)N2C1 numeric_result=9.24

Turning to the following compound.
query: Which pKd reading was recorded for the compound C#CCN1CC(=O)N(C)[C@H]2C/C=C\CCN(C2=O)[C@@H](Cc2ccc(C)cc2)C(=O)N(C)CC(=O)N[C@@H](CCc2cc(F)c(C(F)(F)F)c(F)c2)C(=O)N2C[C@H](OCC)C[C@H]2C(=O)NC2(CC(C)(C)C2)C(=O)N(C)[C@@H](C2CCCC2)C(=O)N(C)[C@H](C(=O)N(C)C)CC(=O)N(C)[C@@H](CC(C)C)C(=O)N[C@@H]([C@@H](C)CC)C1=O ?
result: 9.80

====

Items are presented alongside their recorded Kd.
target: GDP-bound KRAS wild-type protein (Homo sapiens)
test_description: Binding to KRAS by surface plasmon resonance (SPR), Single Cycle Kinetics
condition_details: SPR, Single Cycle Kinetics, GDP-bound KRAS wild-type protein; read-out: KRAS KD

substance_smiles=CCO[C@@H]1C[C@H]2C(=O)N(C)C3(CC(C)(C)C3)C(=O)N(C)[C@@H](C3CCCC3)C(=O)N(C)[C@H](C(=O)N(C)C)CC(=O)N(C)[C@H]3CCC/C=C/c4ccc(cc4)C[C@@H](C(=O)N(C)CC(=O)N[C@@H](CCc4cc(F)c(C(F)(F)F)c(F)c4)C(=O)N2C1)N1CC/C=C\C[C@@H](C1=O)N(C)C(=O)CN(C)C(=O)[C@H]([C@@H](C)CC)NC3=O value_type=Kd result="42 pM"

# input for lookup
query: Kd lookup needed for CC[C@H](C)[C@@H]1NC(=O)[C@H](COC)N(C)C(=O)C[C@@H](C(=O)N(C)C)N(C)C(=O)[C@H](C2CCCC2)N(C)C(=O)C2(CC(C)(C)C2)NC(=O)[C@@H]2C[C@H](C)CN2C(=O)[C@H](CCc2ccc(C(F)(F)F)c(OC)c2)NC(=O)CN(C)C(=O)[C@H](Cc2ccc(C)cc2)N2CC/C=C\C[C@@H](C2=O)N(C)C(=O)CN(C)C1=O , thanks.
result: 120 pM

====

Recorded pKd by entry
target: GDP-bound KRAS wild-type protein (Homo sapiens, UniProt P01116)
test_description: Binding to KRAS by surface plasmon resonance (SPR), Single Cycle Kinetics
condition_details: SPR, Single Cycle Kinetics, 1:1 binding model; GDP-bound KRAS wild-type protein; read-out: KRAS KD
The quantity pKd is defined as the negative base-10 logarithm of the molar concentration.

compound="CCO[C@@H]1C[C@H]2C(=O)NC3(CCC3)C(=O)N(C)[C@@H](C(CC)CC)C(=O)N(C)[C@H](C(=O)N(C)C)CC(=O)N(C)[C@@H](CC3CCCC3)C(=O)N[C@@H]([C@@H](C)CC)C(=O)N(C)CC(=O)N(C)[C@H]3C/C=C\\CCN(C3=O)[C@@H](CC3CCC(F)(F)CC3)C(=O)N(C)CC(=O)N[C@@H](CCc3cc(F)c(C(F)(F)F)c(F)c3)C(=O)N2C1 [PP1431]" value_type=pKd numeric_result=9.24

query: I'd like to know its pKd. The compound in question is CCO[C@@H]1C[C@H]2C(=O)NC3(CCC3)C(=O)N(C)[C@@H](C3CCCC3)C(=O)N(C)[C@H](C(=O)N3CCCC3)CC(=O)N(C)[C@@H](CC3CCCC3)C(=O)N[C@@H]([C@@H](C)CC)C(=O)N(C)CC(=O)N(C)[C@H]3C/C=C\CCN(C3=O)[C@@H](Cc3ccc(C)cc3)C(=O)N(C)CC(=O)N[C@@H](CCc3cc(F)c(C(F)(F)F)c(F)c3)C(=O)N2C1 [PP1412]
result: 9.72

====

target: GDP-bound KRAS wild-type protein (Homo sapiens, UniProt P01116)
test_description: Binding to KRAS by surface plasmon resonance (SPR), Single Cycle Kinetics
condition_details: SPR Single Cycle Kinetics, GDP-bound KRAS wild-type protein, 1:1 binding model; read-out: KRAS KD
Where a SMILES comes first, the peptide text is derived from it. Bridges are numbered along the chain shown (N, C = ends). [ ]: non-standard residue; d: D form. The star is where a group is joined. hPhe(3-Cl-4-CF3) = N[C@@H](CCc1ccc(C(F)(F)F)c(Cl)c1)C(=O)O; NEtPhe(4-Me) = CCN[C@@H](Cc1ccc(C)cc1)C(=O)O; NMeI = CC[C@H](C)[C@H](NC)C(=O)O; NMeD = CN[C@@H](CC(=O)O)C(=O)O; NMeL = CN[C@@H](CC(C)C)C(=O)O; Morpholide = C1CN(*)CCO1; Ac5c = NC1(C(=O)O)CCCC1; Sar = CNCC(=O)O
# pKd values compiled below
pKd is a log-scale quantity: -log10 of the concentration expressed in molar.

Study these solved cases before continuing.
molecule=C#CC[C@H]1C(=O)N[C@@H]([C@@H](C)CC)C(=O)N(C)CC(=O)N(C)[C@H]2CCCCCN(C2=O)[C@@H](Cc2ccc(C(F)(F)F)cc2)C(=O)N(C)CC(=O)N[C@@H](CCc2cc(F)c(C(F)(F)F)c(F)c2)C(=O)N2C[C@H](OCC)C[C@H]2C(=O)NC2(CCC2)C(=O)N(C)[C@@H](C2CCCC2)C(=O)N(C)[C@H](C(=O)N2CCOCC2)CC(=O)N1C value_type=pKd numeric_result=9.36
molecule=CCC(CC)[C@H]1C(=O)N(C)[C@H](C(=O)N(C)C)CC(=O)N(C)[C@@H](COC)C(=O)N[C@@H]([C@@H](C)CC)C(=O)N(C)CC(=O)N(C)[C@H]2C/C=C\CCN(C2=O)[C@@H](Cc2ccc(C(F)(F)F)cc2)C(=O)N(C)CC(=O)N[C@@H](CCc2ccc(Cl)c(Cl)c2)C(=O)N2CCOC[C@H]2C(=O)NC2(CC(C)(C)C2)C(=O)N1C value_type=pKd numeric_result=8.60

query: State the recorded pKd for this entry: CC[C@H](C)[C@@H]1NC(=O)[C@H](CC(C)C)N(C)C(=O)C[C@@H](C(=O)N2CCOCC2)N(C)C(=O)[C@H]([C@@H](C)CC)N(C)C(=O)C2(CCCC2)NC(=O)[C@@H]2CCCN2C(=O)[C@H](CCc2ccc(C(F)(F)F)c(Cl)c2)NC(=O)CN(C)C(=O)[C@H](Cc2ccc(C)cc2)N(CC)C(=O)CN(C)C(=O)CN(C)C1=O [PP0043] ([NMeL]I[Sar][Sar][NEtPhe(4-Me)][Sar][hPhe(3-Cl-4-CF3)]P[Ac5c][NMeI][NMeD]-Morpholide; lactam N-11)
result: 9.06
